Test system: M14 melanoma
Procedure details: NCI tumour cell line growth inhibition, 48 h
Where a SMILES comes first, the peptide text is derived from it. [ ]: non-standard residue; d: D form. The star is where a group is joined. ξ: configuration not given here. ξHyp = O=C(O)C1CC(O)CN1; Cbz = O=C(OCc1ccccc1)*
The entries below come with measured TGI values attached.

Compound | TGI
O=C1c2ccccc2C(=O)c2c1ccc(O)c2O | > 100 µM
Cc1cc(C)nc(NS(=O)(=O)c2ccc(Nc3c4ccccc4nc4c(C(=O)N5CCN(CCO)CC5)ccc(Cl)c34)cc2)n1 | > 100 µM
CC(C)(C)c1cc(COc2c3sc(=S)sc3c(OCc3cc(C(C)(C)C)cc(C(C)(C)C)c3)c3sc(=S)sc23)cc(C(C)(C)C)c1 | > 100 µM
CCN(CC)CCN1CCc2c([nH]c3ccccc23)C1c1cccnc1 (stereo unspecified) | > 100 µM
NC1CC(=O)c2ccccc21 (stereo unspecified) | > 100 µM
CNCCC/C=C1\c2cc3c(cc2-c2c1c1cc(OC)c(OC)cc1c(=O)n2C)OCO3 | 9.4 µM
Cc1c(Cl)ccc2c1NC(=O)C2(O)CC(=O)c1cccc2ccccc12 (stereo unspecified) | > 100 µM
C/C=C/CC(S(=O)(=O)c1ccccc1)S(=O)(=O)c1ccccc1 | > 100 µM
NCC(O)CSP(=O)(O)O (stereo unspecified) | > 100 µM
O=C1CCC[C@]2(CCCC(=O)N2)C1 | > 100 µM
Nc1cc2ccccc2c(O)c1O | 12.3 µM
COC(=O)C(C)(C)NC(=O)C(Cc1ccccc1)Nc1ncnc2c1ncn2-c1ccc(OC)cc1 (stereo unspecified) | > 100 µM
C=C(C)C12OC3(c4ccccc4)OC1C1C4OC4(CO)C(O)C4(O)C(=O)C(C)=CC4C1(O3)C(C)C2OC(=O)/C=C/C=C/c1ccccc1 (stereo unspecified) | 0.409 µM
COC(=O)[C@]12CC[C@@H](C(=O)/C=C/c3cccnc3)[C@@H]1[C@H]1CC[C@@H]3[C@@]4(C)C/C(=C/c5cccnc5)C(=O)C(C)(C)[C@@H]4CC[C@@]3(C)[C@]1(C)CC2 | 1.01 µM
COC(=O)CC(=O)OC | > 100 µM
O=C(Nc1ccc(-n2ccc3c(NC(=O)c4ccccc4)ncnc32)cc1)c1ccc(Cl)c(C(F)(F)F)c1 | 9.47 µM
O=C(O)c1ccccc1/C=C1\Cc2ccccc2C1=O | > 100 µM
NC(=O)CNC(=O)C1CC(O)CN1C(=O)OCc1ccccc1 (stereo unspecified) (Cbz-[ξHyp]-Gly-NH2) | > 100 µM
CC1(C=O)C(=O)CCC2(C)C3CC(=O)OC3CCC12 (stereo unspecified) | > 100 µM
Clc1ccc(-c2nc(-c3ccccc3)cn3ccnc23)cc1 | 27.4 µM
CCc1cccc(C)c1NC(=O)CCc1nnc(SC)o1 | > 100 µM
